tested on: LY2; experiment: -log10 GI50 (growth inhibition 50%) (-log10(M)); higher = more potent growth inhibition
Provide the reported -log10 GI50 of each item.
# output: bare number, no unit

Query O=c1[nH]c(=O)n([C@H]2C[C@H](O)[C@@H](CO)O2)cc1F on LY2; -log10 GI50 returned: 5.63

Query Cn1ncc(Cl)c1-c1cc(C(=O)N[C@H](CN)Cc2ccc(F)c(F)c2)oc1Cl on LY2; -log10 GI50 returned: 6.62

Query O=C(c1ccc(Nc2nccc(-c3cc4ccccc4s3)n2)cc1)N1CCC(N2CCCC2)CC1 on LY2; -log10 GI50 returned: 5.26

Query NS(=O)(=O)OC[C@@H]1C[C@@H](n2ccc3c(N[C@H]4CCc5ccccc54)ncnc32)C[C@@H]1O on LY2; -log10 GI50 returned: 7

Query CC(/C=C/C(=O)NO)=C\[C@@H](C)C(=O)c1ccc(N(C)C)cc1 on LY2; -log10 GI50 returned: 4.99

Query NS(=O)(=O)c1ccc(Nc2nc(OCC3CCCCC3)c3[nH]cnc3n2)cc1 on LY2; -log10 GI50 returned: 4.56

Query N.N.[Cl][Pt][Cl] [Cisplatin] on LY2; -log10 GI50 returned: 5.11

Query O=c1cc(-c2ccccc2)oc2cc(O)c(O)c(O)c12 on LY2; -log10 GI50 returned: 4.19

Query O=C(/C=C/C#Cc1cccc(NS(=O)(=O)c2ccccc2)c1)NO on LY2; -log10 GI50 returned: 5.89

Query CCN(CC)C(=S)SSC(=S)N(CC)CC on LY2; -log10 GI50 returned: 5.01

Query COc1cccc2c1C(=O)c1c(O)c3c(c(O)c1C2=O)C[C@@](O)(C(=O)CO)C[C@@H]3O[C@H]1C[C@H](N)[C@H](O)[C@H](C)O1 on LY2; -log10 GI50 returned: 6.71

Query C=CCNC1=C2C[C@@H](C)C[C@H](OC)[C@H](O)[C@@H](C)/C=C(\C)[C@H](OC(N)=O)[C@@H](OC)/C=C\C=C(/C)C(=O)NC(=CC1=O)C2=O on LY2; -log10 GI50 returned: 6.99

Query O=C(O)C1(C(=O)O)CCC1.[NH2-].[NH2-].[Pt+2] on LY2; -log10 GI50 returned: 4.34

Query CO[C@H]1C[C@@H]2CC[C@@H](C)[C@@](O)(O2)C(=O)C(=O)N2CCCC[C@H]2C(=O)O[C@H]([C@H](C)C[C@@H]2CC[C@@H](OC(=O)C(C)(CO)CO)[C@H](OC)C2)CC(=O)[C@H](C)/C=C(\C)[C@@H](O)[C@@H](OC)C(=O)[C@H](C)C[C@H](C)/C=C/C=C/C=C/1C on LY2; -log10 GI50 returned: 6.85

Query CNC(=O)c1c(F)cccc1Nc1nc(Nc2cc3c(cc2OC)CCN3C(=O)CN(C)C)nc2[nH]ccc12 on LY2; -log10 GI50 returned: 6.27

Query CCC[C@H](N[C@H]1CCc2cc(F)cc(F)c2C1)C(=O)Nc1cn(C(C)(C)CNCC(C)(C)C)cn1 on LY2; -log10 GI50 returned: 4.68

Query CCNCCCCNCCCCNCCCCNCCCCNC/C=C/CNCCCCNCCCCNCCCCNCCCCNCC on LY2; -log10 GI50 returned: 5.18

Query Cc1cc(C(=O)N2CCN(c3cccc(Cl)c3)CC2)n(-c2ccccc2)n1 [XRP44X] on LY2; -log10 GI50 returned: 6.08

Query Nc1ccn([C@@H]2O[C@H](CO)[C@@H](O)C2(F)F)c(=O)n1 on LY2; -log10 GI50 returned: 7.62

Query O=C(O)C(=O)O.[NH-][C@@H]1CCCC[C@H]1[NH-].[Pt+2] on LY2; -log10 GI50 returned: 5.45

Query CCNCCCNC/C=C\CNCCCNCC on LY2; -log10 GI50 returned: 2.9

Query O=C1NC(=O)/C(=C/c2ccc(-c3ccc(F)cc3O)o2)S1 on LY2; -log10 GI50 returned: 4.51

Query COc1cc2ncnc(Nc3ccc(F)c(Cl)c3)c2cc1OCCCN1CCOCC1 on LY2; -log10 GI50 returned: 4.62

Query CCc1c2c(nc3ccc(OC(=O)N4CCC(N5CCCCC5)CC4)cc13)-c1cc3c(c(=O)n1C2)COC(=O)[C@]3(O)CC on LY2; -log10 GI50 returned: 4.88

Query CCN(CC)CCNC(=O)c1c(C)[nH]c(/C=C2\C(=O)Nc3ccc(F)cc32)c1C [Sunitinib malate] on LY2; -log10 GI50 returned: 5.14

###

Provide the reported -log10 GI50 of each item.
system: HCC1428; assay: -log10 GI50 (growth inhibition 50%) (-log10(M)); higher = more potent growth inhibition

Query CN(Cc1cnc2nc(N)nc(N)c2n1)c1ccc(C(=O)N[C@@H](CCC(=O)O)C(=O)O)cc1 [Methotrexate] on HCC1428; -log10 GI50 returned: < 3.48

Query Cc1cncc2cccc(S(=O)(=O)N3CCCN(C(=O)CN)C[C@@H]3C)c12 [Glycyl H1152] on HCC1428; -log10 GI50 returned: < 4.18

Query CC(C(C)N1CC(=O)NC(=O)C1)N1CC(=O)NC(=O)C1 (stereo not drawn) [ICRF-193] on HCC1428; -log10 GI50 returned: < 4.3

###

test system: MDAMB361; experiment: -log10 GI50 (growth inhibition 50%) (-log10(M)); higher = more potent growth inhibition
Classification field: enter 1 for -log10 GI50 values not below 6, -1 for values below it.

Threshold query (-log10 GI50 >= 6) on CSCC[C@H](NC(=O)[C@H](Cc1ccccc1)NC[C@@H](NC[C@@H](N)CS)C(C)C)C(=O)O [FTase inhibitor I]
-1

Threshold query (-log10 GI50 >= 6) on CCN(CC)C(=S)SSC(=S)N(CC)CC [Disulfiram]
1

Threshold query (-log10 GI50 >= 6) on N.N.[Cl][Pt][Cl] [Cisplatin]
-1

Threshold query (-log10 GI50 >= 6) on O=C(O)c1ccc(-c2c[nH]c3ncc(-c4ccccc4)cc23)cc1C1CCCC1
-1

Threshold query (-log10 GI50 >= 6) on COc1cccc2c1C(=O)c1c(O)c3c(c(O)c1C2=O)C[C@@](O)(C(=O)CO)C[C@@H]3O[C@H]1C[C@H](N)[C@H](O)[C@H](C)O1 [Doxorubicin]
1

Threshold query (-log10 GI50 >= 6) on CC(C)C[C@H](NC(=O)[C@H](Cc1ccccc1)NC(=O)c1cnccn1)B(O)O [Bortezomib]
-1

Threshold query (-log10 GI50 >= 6) on CNC(=O)c1c(F)cccc1Nc1nc(Nc2cc3c(cc2OC)CCN3C(=O)CN(C)C)nc2[nH]ccc12
-1

Threshold query (-log10 GI50 >= 6) on COc1ccc(C2=N[C@@H](c3ccc(Cl)cc3)[C@@H](c3ccc(Cl)cc3)N2C(=O)N2CCNC(=O)C2)c(OC(C)C)c1 [Nutlin 3a]
-1

Threshold query (-log10 GI50 >= 6) on CC(/C=C/C(=O)NO)=C\[C@@H](C)C(=O)c1ccc(N(C)C)cc1 [Trichostatin A]
-1

Threshold query (-log10 GI50 >= 6) on CC(C)Oc1ccc(C(=O)N[C@H](CNC(=O)CN(C)C)Cc2ccc(-c3cn4cccc([C@H](C)O)c4n3)cc2)cc1Cl
1

Threshold query (-log10 GI50 >= 6) on CCNCCCNC/C=C\CNCCCNCC
-1

Threshold query (-log10 GI50 >= 6) on CC(C(C)N1CC(=O)NC(=O)C1)N1CC(=O)NC(=O)C1 (stereo not given) [ICRF-193]
-1

Threshold query (-log10 GI50 >= 6) on Cn1ncc(Cl)c1-c1cc(C(=O)N[C@H](CN)Cc2ccc(F)c(F)c2)oc1Cl
1

###

system: HCC1428; test: -log10 GI50 (growth inhibition 50%) (-log10(M)); higher = more potent growth inhibition
Provide the reported -log10 GI50 of each item.
# output: bare number, no unit

Query C[C@@H](Oc1cc(-c2cnn(C3CCNCC3)c2)cnc1N)c1c(Cl)ccc(F)c1Cl on HCC1428; -log10 GI50 returned: 5.13

Query CNC(=O)c1c(F)cccc1Nc1nc(Nc2cc3c(cc2OC)CCN3C(=O)CN(C)C)nc2[nH]ccc12 on HCC1428; -log10 GI50 returned: 5.79

Query N.N.[Cl][Pt][Cl] [Cisplatin] on HCC1428; -log10 GI50 returned: 4.33

###

system: MDAMB134VI; experiment: -log10 GI50 (growth inhibition 50%) (-log10(M)); higher = more potent growth inhibition
Quantity Kind: -log10 GI50
# output: bare number, no unit

Reported -log10 GI50 for CCNCCCNC/C=C\CNCCCNCC was 2.97

Reported -log10 GI50 for C=CCNC1=C2C[C@@H](C)C[C@H](OC)[C@H](O)[C@@H](C)/C=C(\C)[C@H](OC(N)=O)[C@@H](OC)/C=C\C=C(/C)C(=O)NC(=CC1=O)C2=O was 7.42

Reported -log10 GI50 for Cc1[nH]c2ccccc2c1CCNCc1ccc(/C=C/C(=O)NO)cc1 was 7.05

Reported -log10 GI50 for COC1=C2C[C@@H](C)C[C@H](OC)[C@H](O)[C@@H](C)/C=C(\C)[C@H](OC(N)=O)[C@@H](OC)/C=C\C=C(/C)C(=O)NC(=CC1=O)C2=O was 7.8

Reported -log10 GI50 for COc1cc2c(Nc3ccc(NC(=O)c4ccccc4)cc3)ncnc2cc1OCCCN1CCOCC1 was 5.03

Reported -log10 GI50 for CC(C(C)N1CC(=O)NC(=O)C1)N1CC(=O)NC(=O)C1 (stereo not drawn) was 4.32

Reported -log10 GI50 for O=C(O)C1(C(=O)O)CCC1.[NH2-].[NH2-].[Pt+2] was 3.66

Reported -log10 GI50 for Cc1ccc(NC(=O)c2ccc(CN3CCN(C)CC3)cc2)cc1Nc1nccc(-c2cccnc2)n1 was 4.47

Reported -log10 GI50 for Cc1cncc2cccc(S(=O)(=O)N3CCCN(C(=O)CN)C[C@@H]3C)c12 was 5.9

Reported -log10 GI50 for CC(C)Oc1ccc(C(=O)N[C@H](CNC(=O)CN(C)C)Cc2ccc(-c3cn4cccc([C@H](C)O)c4n3)cc2)cc1Cl was 6.52

Reported -log10 GI50 for C[C@@H](Oc1cc(-n2cnc3ccc(CN4CCN(C)CC4)cc32)sc1C(N)=O)c1ccccc1C(F)(F)F was 7.83

Reported -log10 GI50 for CCn1cc(-c2ccnc3[nH]c(-c4cccc(CN(C)C)c4)cc23)c(-c2ccc(NC(=O)N(C)C)cc2)n1 was 5.59

Reported -log10 GI50 for CC(=O)Nc1cccc(-n2c(=O)n(C3CC3)c(=O)c3c(Nc4ccc(I)cc4F)n(C)c(=O)c(C)c32)c1 was 8.33

Reported -log10 GI50 for Cc1cc(C(=O)N2CCN(c3cccc(Cl)c3)CC2)n(-c2ccccc2)n1 [XRP44X] was 6.09

Reported -log10 GI50 for O=C(O)C(=O)O.[NH-][C@@H]1CCCC[C@H]1[NH-].[Pt+2] was 3.54

Reported -log10 GI50 for CCC[C@H](N[C@H]1CCc2cc(F)cc(F)c2C1)C(=O)Nc1cn(C(C)(C)CNCC(C)(C)C)cn1 was 4.33

Reported -log10 GI50 for CO[C@H]1C[C@@H]2CC[C@@H](C)[C@@](O)(O2)C(=O)C(=O)N2CCCC[C@H]2C(=O)O[C@H]([C@H](C)C[C@@H]2CC[C@@H](OCCO)[C@H](OC)C2)CC(=O)[C@H](C)/C=C(\C)[C@@H](O)[C@@H](OC)C(=O)[C@H](C)C[C@H](C)/C=C/C=C/C=C/1C was 7.27

Reported -log10 GI50 for CCCCCN(C)CCC(O)(P(=O)(O)O)P(=O)(O)O [Ibandronate sodium] was 4.17

Reported -log10 GI50 for COc1cccc2c1C(=O)c1c(O)c3c(c(O)c1C2=O)C[C@@](O)(C(=O)CO)C[C@@H]3O[C@H]1C[C@H](N)[C@@H](O)[C@H](C)O1 [Epirubicin] was 5.98

Reported -log10 GI50 for Cn1ncc(Cl)c1-c1cc(C(=O)N[C@H](CN)Cc2ccc(F)c(F)c2)oc1Cl was 5.2

Reported -log10 GI50 for CNC(=O)c1c(F)cccc1Nc1nc(Nc2cc3c(cc2OC)CCN3C(=O)CN(C)C)nc2[nH]ccc12 was 4.96

Reported -log10 GI50 for CC(C)C[C@@H](C=O)NC(=O)[C@H](CC(C)C)NC(=O)[C@H](CC(C)C)NC(=O)OCc1ccccc1 was 6.63

Reported -log10 GI50 for O=c1[nH]cc(F)c(=O)[nH]1 was 2.66

Reported -log10 GI50 for O=C1NC(=O)/C(=C/c2ccc(-c3ccc(F)cc3O)o2)S1 was 4.48
